tested on: RARb:RXRa (NR concentration 270 nM, RXRa partner concentration 90 nM); test: PBM binding z-score (relative to random genomic background probes); higher = stronger binding; sequences stand for … in GC…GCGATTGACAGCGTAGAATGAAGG
outcome.measure: PBM binding z-score
Give bare numbers.

The cases that follow already have their PBM binding z-score on record.
{"columns": ["entry.sequence", "PBM binding z-score"],
 "data": [
  ["AGTCAAAGTTCACTAGGTAACGTAAGATTCAGCT", 4.72],
  ["TCTCGGAGGACAAGAAAGGTCAGAGCTCGACATC", 4],
  ["CTCGAAAGGTCGTACTCAGGTGAGTATACCAAAC", 3.75],
  ["ACTAGCAGGCTAAGGGTCACTCAAGATTAGTCCG", 3.47],
  ["CGTCCAAGGTCGATGCTAGGTCAGTGAAAGCATT", 2.92]
]}

Provide reported PBM binding z-score for each item, in the same order as listed.
1. ATATCTAGGTAACCAAGTTCAGTGAATGCCGAAC
2. CGAACGAGGGCATGATTTGATAGCAAATGCCGAT

[A]
[1.39, 1.78]

Provide reported PBM binding z-score for each item, in the same order as listed.
1. TCATATAGGTAAAGGTGAAAATCGAACGATATGA
2. TAGCCTAGGTCATGCGGGCCAGAATAGTGTCGGC
3. GCAGACAGGTGAAACGCAGGTAACTCGGGGTGGC
4. GCGACTGGGGCAAAGCAGGTGACCATAAGGTTGG
5. TTTAGCAGGCCAGAGGGTCACTCAAGAGGTACGG

[A]
[1.73, 3.83, 0.754, 0.913, 2.05]

----------
tested on: PPARg:RXRa 90nM:30nM, anti-RXR (NR concentration 90 nM, RXRa partner concentration 30 nM); test: PBM binding z-score (relative to random genomic background probes); higher = stronger binding; sequences stand for … in GC…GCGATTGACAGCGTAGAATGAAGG
Given measured PBM binding z-score, output Fulfilled if it is greater than or equal to 2 and Not fulfilled if not.

{"columns": ["entry.sequence", "class"],
 "data": [
  ["ATCTCTAGGTAAAAGTTCAGCGAATCCCGAGGAT", "Fulfilled"]
]}

[Q] Could you verify whether the entry AATACAGGGTCATCGGAGGCCAGAGTACGCACAG shows PBM binding z-score of no less than 2?
[A] Fulfilled

[Q] Could you verify whether the entry GATACAGGGCCAAGGCCAGAGTACGCGTATTGAT shows PBM binding z-score of no less than 2?
[A] Not fulfilled

[Q] Could you verify whether the entry GCGACTGGGGCAAAGCAGGTCACCATAAGGTTGG shows PBM binding z-score of no less than 2?
[A] Not fulfilled

[Q] Could you verify whether the entry AGAATGAGGTTAAGATAAGGGAAACAGAATACAT shows PBM binding z-score of no less than 2?
[A] Not fulfilled

[Q] Could you verify whether the entry GCGACTGGGGCAAAGCAGGTTTCCATAAGGTTGG shows PBM binding z-score of no less than 2?
[A] Not fulfilled

[Q] Could you verify whether the entry CCTTACGCGTCACTGACAGGTTATAGCATTTGGA shows PBM binding z-score of no less than 2?
[A] Not fulfilled

----------
Consider the following sequences; for each one, report its PBM binding z-score.
test system: PPARg:RXRa DBDmut IVT, anti-RXR (DBD mutation: RXRa K156A/R161A, NR concentration 270 nM, RXRa partner concentration 90 nM); assay: PBM binding z-score (relative to random genomic background probes); higher = stronger binding; sequences stand for … in GC…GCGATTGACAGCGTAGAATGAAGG
One number for each entry.

The cases that follow already have their PBM binding z-score on record.
{"columns": ["entry.sequence", "PBM binding z-score"],
 "data": [
  ["ATCTCTAGGTAAAAGTTCAGTGATTCCCGAGGAT", 2.14],
  ["CCTCGGAGGACAACAAGAGGTCAGAGCTGCCAGA", -0.155],
  ["TTACCAAGGTGAGCTGTGGTCGTTGATCCAACTC", 1.27]
]}

Provide reported PBM binding z-score for each item, in the same order as listed.
1. AGAACGAGGGCAATGAGTTGATAGCGCGGGTGGC
2. AATACAGGGTCACTAGGCCAGAGTAGGTACGAAT

[A]
1. 3.57
2. 3.83

----------
test system: RARb:RXRa (NR concentration 270 nM, RXRa partner concentration 90 nM); assay: PBM binding z-score (relative to random genomic background probes); higher = stronger binding; sequences stand for … in GC…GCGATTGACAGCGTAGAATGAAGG
outcome.measure: PBM binding z-score

{"columns": ["entry.sequence", "outcome.measure", "result"],
 "data": [
  ["TTACCAAGGTGAAAGGTCGTAGATGCACGCCTTG", "PBM binding z-score", 3.31],
  ["GGAACGAGGGCATGTTGATAGCAGAGTTTGATGG", "PBM binding z-score", 1.81],
  ["GCTAGTTGGTCAGTAAAAGGTAACACACCGGTCG", "PBM binding z-score", 1.03]
]}

Provide reported PBM binding z-score for each item, in the same order as listed.
1. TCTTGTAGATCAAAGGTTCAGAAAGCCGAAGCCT
2. CGAACTAGGTCATTCACAGGACAGTGAATAGTAA

[A]
[0.898, 3.72]

Provide reported PBM binding z-score for each item, in the same order as listed.
1. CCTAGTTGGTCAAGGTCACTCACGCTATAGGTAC
2. GGACCGAGGGCAAAGTTGATAGCATCTGTCGACG
3. TCTGCTAGGTCAGTGGGTCAGCTAACGAGCTGCC
4. TCGAGTAGGTTGGTCGGGGCATTCAGCCAACATA
5. ATATCTAGGTTACATCCGGGTCATTCAGGCTATG

[A]
4
2.4
3.77
0.117
2.63

Provide reported PBM binding z-score for each item, in the same order as listed.
1. ATACCAAGGTGATCGCGAGGTCGTTGATACTAAC
2. TCTGCTAGGACAGTTGGTCAGCTAACGAGCTGCC
3. CCTACTGGGCCATTCAGCGGTCATTGATCATATG
4. CCTTACGGGTCACTCCAGGTTATAACATCGGAGT
5. CAGCCTAAGTCAGGGCCAGTATAGGAGGAACGTT
6. CATACAGGGCCAGCTAGGCCAGAGTAGGGACGGC

[A]
1. 1.24
2. 0.346
3. 1.2
4. 3.67
5. -0.134
6. 0.645

----------
tested on: PPARa:RXRa (NR concentration 270 nM, RXRa partner concentration 90 nM); assay: PBM binding z-score (relative to random genomic background probes); higher = stronger binding; sequences stand for … in GC…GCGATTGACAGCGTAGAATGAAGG
outcome.measure: PBM binding z-score
One number for each entry.

The cases that follow already have their PBM binding z-score on record.
{"columns": ["entry.sequence", "PBM binding z-score"],
 "data": [
  ["ATACCAAGGTGATCCTGAGGTCGTTGATACTAAC", 2.1],
  ["ACTATTAGTTGACTTCGGGCAACCGATACGACGC", -0.237],
  ["CCGACTGGGGCAGAAAGGTTACCATTCCATCCGG", 1.93],
  ["TCTTGTAGATCAACAGGAGGTTAAGAAGGATCGA", 1.34],
  ["ATACCAAGGTGATCGTGAGGTCGTGGATACTAAC", 2.17],
  ["ATCTCTAGGTAGAGATAGTTCAGTGAATGCAAAT", 0.178],
  ["GCGACTGGGGCTTCAGCAGGTTACCATAACTTAA", 0.478],
  ["TCATATAGGTAATACAGGTGAAAGACGGCATCTA", 1.94]
]}

Provide reported PBM binding z-score for each item, in the same order as listed.
1. GCTTACGGGTCAAAGGCTATAGCATGAATAGAAT
2. CCTACTGGGCCAAACAGGTCATTGATGCCGATAA
3. TCTCGGAGGACACGAAAGGTCAGGGCTCGACATC
4. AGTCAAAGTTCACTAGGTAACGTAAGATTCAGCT

[A]
[6.01, 2.56, 3.95, 5.11]

----------
tested on: LXRb homodimer (NR concentration 270 nM); assay: PBM binding z-score (relative to random genomic background probes); higher = stronger binding; sequences stand for … in GC…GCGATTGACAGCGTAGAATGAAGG
Okay, here is how we bin by PBM binding z-score: lo: < -0.3; mid: ≥ -0.3 and < 0.2; hi: ≥ 0.2

[Q] Which of the defined bands does the recorded PBM binding z-score of TCTTGTAGATCAATGGAGGTTAAGAAAGTGCGCT sit within?
[A] mid
